- test system: tocopherol hydroxylase activity in HepG2/C3A cultures (Homo sapiens)
- Construct: Confluent cultures of the human heptoblastoma cell line, HepG2/C3A; endogenous in cells
- Sequence (P78329 5-520): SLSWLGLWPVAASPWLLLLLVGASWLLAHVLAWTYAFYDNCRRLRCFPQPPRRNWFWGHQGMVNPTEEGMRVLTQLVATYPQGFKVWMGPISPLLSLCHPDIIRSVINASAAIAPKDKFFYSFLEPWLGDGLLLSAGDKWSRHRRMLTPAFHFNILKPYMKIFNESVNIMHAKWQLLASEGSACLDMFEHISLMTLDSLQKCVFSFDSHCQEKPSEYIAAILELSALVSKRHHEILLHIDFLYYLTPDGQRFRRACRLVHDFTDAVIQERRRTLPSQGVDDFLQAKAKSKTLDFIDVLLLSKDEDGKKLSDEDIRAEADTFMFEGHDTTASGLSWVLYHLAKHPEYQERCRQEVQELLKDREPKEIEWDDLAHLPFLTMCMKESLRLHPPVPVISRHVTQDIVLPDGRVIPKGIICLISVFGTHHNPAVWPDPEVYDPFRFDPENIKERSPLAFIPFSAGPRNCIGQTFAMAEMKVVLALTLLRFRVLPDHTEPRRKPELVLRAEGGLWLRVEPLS
- assay method text: Metabolism of γ-tocopherol (ω-oxidation products by GC-MS) in HepG2/C3A hepatoblastoma cultures
- cond: 4 hour pre-incubation, 25 μM γ-tocopherol as substrate, 48 hours, read-out: concentration required to inhibit tocopherol hydroxylase activity by 50% (EC50)
EC50 by entry:

chem smiles	result
Cc1c(C)c2c(c(C)c1O)CC[C@@](C)(CCCCCCCCCn1cncn1)O2	~1 nM

So what's the measured EC50 for this one? Cc1c(C)c2c(c(C)c1O)CC[C@@](C)(CCCCCCCCCn1ccnc1)O2
1 to 2 nM
